Each recorded value in this set is attributed to patent US6784184B2.

target: FPTase (K-Ras substrate) (UniProt P29702+P49355); assay: in vitro FTase Inhibition Assay, K-Ras as substrate for farnesylation; details: K-Ras used as substrate for farnesylation
pIC50: −log10 of the molar value.
READOUT: pIC50

Ask | Recall the recorded pIC50 for Cc1ccc(S(=O)(=O)C2(CCCC#Cc3ccc(C(C)(C)C)cc3)SC(=O)NC2=O)cc1 (stereo not shown) with FPTase (K-Ras substrate) (UniProt P29702+P49355) and state it.
Reply | 5.30

Ask | Request: pIC50, test system FPTase (K-Ras substrate) (UniProt P29702+P49355), entry COC(=O)Nc1ccc(C)c(C#CCCCC2(S(=O)(=O)c3ccc(OC)cc3)SC(=O)NC2=O)c1 (stereo not shown)
Reply | 8.00

Ask | Fill in the recorded pIC50 for this molecule, with FPTase (K-Ras substrate) (UniProt P29702+P49355) as test system: COc1ccc(S(=O)(=O)C2(CCCC#Cc3cc(NC(=O)OC(C)C)ccc3C)SC(=O)N(C(=O)OC(C)C)C2=O)cc1 (stereo not shown)
Reply | 6.15 to 7.00

Ask | Write down the reported pIC50 of O=C1NC(=O)C(CCCC#Cc2ccc([N+](=O)[O-])cc2)(S(=O)(=O)c2ccc(I)cc2)S1 (stereo not shown) , test system: FPTase (K-Ras substrate) (UniProt P29702+P49355).
Reply | 6.00 to 6.28

Ask | Short answer please: pIC50, FPTase (K-Ras substrate) (UniProt P29702+P49355), entry COc1ccc(S(=O)(=O)C2(CCCC#Cc3cc(NC(=O)OCC(C)(C)C)ccc3C)SC(=O)N(C(=O)OCC(C)(C)C)C2=O)cc1 (stereo not shown)
Reply | 6.30 to 7.70

Ask | Form entry - test system: FPTase (K-Ras substrate) (UniProt P29702+P49355); read-out: pIC50; molecule: COc1ccc(S(=O)(=O)C2(CCCC#Cc3ccc(C(F)(F)F)cc3)SC(=O)NC2=O)cc1 (stereo not shown)
Reply | 5.21 to 6.00

Ask | # value lookup — system FPTase (K-Ras substrate) (UniProt P29702+P49355), readout pIC50, item Cc1ccc([N+](=O)[O-])cc1C#CCCCC1(S(=O)(=O)c2ccc3ccccc3c2)SC(=O)NC1=O (stereo not shown)
Reply | 5.82 to 5.89

###

biological target: FPTase (H-Ras substrate) (UniProt P29702+P49355); assay: in vitro FTase Inhibition Assay, H-Ras as substrate for farnesylation; settings: H-Ras used as substrate for farnesylation
READOUT: IC50

Ask | Provide the documented IC50 with FPTase (H-Ras substrate) (UniProt P29702+P49355) as the system for Cc1ccc(C(=O)NC(C)(C)C)cc1C#CCCCC1(S(=O)(=O)c2ccc(I)cc2)SC(=O)NC1=O (stereo not drawn) [Example 147]
Reply | 6.8 to 210 nM

Ask | Quick check: IC50 on FPTase (H-Ras substrate) (UniProt P29702+P49355), item Cc1ccc([N+](=O)[O-])cc1C#CCCCC1(S(=O)(=O)c2ccc(I)cc2)SC(=O)NC1=O (stereo not drawn) [Example 125] ?
Reply | 30 nM

Ask | Form: Entry = O=C1NC(=O)C(CCCC#Cc2ccc(Cl)cc2)(S(=O)(=O)c2cccc3cccnc23)S1 (stereo not drawn) [Example 109] | System = FPTase (H-Ras substrate) (UniProt P29702+P49355) | IC50 = ____
Reply | 65 to 130 nM
